# System: SK-MEL-28 melanoma
# Measurement Description: NCI tumour cell line growth inhibition, 48 h
Where a SMILES comes first, the peptide text is derived from it. The star is where a group is joined. Boc = CC(C)(C)OC(=O)*; OBn = c1ccc(CO*)cc1
Measured TGI of individual entries

Examples with answers:
• O=[N+]([O-])c1ccc2c(c1)[O][Sn][O]2 = > 150 mg/L
• O=c1oc2ccc(Cl)cc2cc1-c1cn2cc(Cl)ccc2n1 = > 100 µM
• CCOc1c(Cl)cc(CNC(C)C(O)c2ccccc2)cc1OC (centres undefined) = 30.8 µM
• Cc1ccc(-c2n[nH]c(=O)[nH]2)cc1[N+](=O)[O-] = > 100 µM
• CC1(C)Oc2ccc(NC(=O)CCC(N)C(=O)O)cc2O1 (centres undefined) = > 100 µM
• CCOc1cc(C2CC(c3ccc(NS(=O)(=O)c4cc([N+](=O)[O-])ccc4C)cc3)=NN2)ccc1O (centres undefined) = > 100 µM
• Cc1ccc(NC(=O)Cn2c(Br)nc3c2c(=O)n(C)c(=O)n3C)cc1 = 23.5 µM
• CN(Cc1cnc2nc(N)nc(N)c2n1)c1ccc(C(=O)NC(CCC(=O)NC(P(=O)(O)O)P(=O)(O)O)C(=O)O)cc1 (centres undefined) = > 100 µM
• CCN(CC)CCCC(C)Nc1c2ccc(C)cc2nc2ccc(OC)cc12 (centres undefined) = 3.35 µM
• CN1C(=O)C(Cl)(C(Cl)(Cl)S(=O)(=O)O)C(=O)c2ccccc21 (centres undefined) = > 100 µM

Note to self: TGI recorded for CC(C)(C)OC(=O)NC(Cc1ccccc1)C(=O)NC(Cc1ccccc1)C(=O)NCC(=O)OCc1ccccc1 (stereo not drawn) (Boc-Phe-Phe-Gly-OBn; configuration not given here) was 42.7 µM

Note to self: TGI recorded for COc1cc(S(=O)(=O)Nc2ccc(C3=NNC(c4ccccc4)C3)cc2)ccc1F (centres undefined) was > 100 µM

Note to self: TGI recorded for N#CC(NNC(=O)c1ccccc1O)c1cccc(O)c1 (centres undefined) was > 100 µM

Note to self: TGI recorded for O=C(NCc1ccc(Cl)cc1)c1cc2sccc2nc1C(F)(F)F was > 100 µM

Note to self: TGI recorded for COc1ccc2c(c1)[n+]([O-])c(/C(C)=N/NC(=O)CC#N)c[n+]2[O-] was > 100 µM

---

# Tested on: HL-60(TB) leukemia
# Measurement Description: NCI tumour cell line growth inhibition, 48 h
Measured Parameter: TGI

Examples with answers:
- Oc1ccc(CCc2cc(O)cc(O)c2)cc1: > 100 µM
- COc1ccc(/C=C2\N=C(c3ccccc3)N(C3Nc4cc5c(cc4S3)NC(N3C(=O)/C(=C/c4ccc(OC)cc4)N=C3c3ccccc3)S5)C2=O)cc1 (stereo not drawn): > 100 µM
- CC(C)N(C)C(=O)C12C3C4C1C1C2C3C41C#N (stereo not drawn): > 100 µM
- Cc1ccc(S(=O)(=O)N=Nc2c(O)[nH]c3c(Cl)cc(Cl)cc23)cc1: > 100 µM

Note to self: TGI recorded for CN(C)C(=O)O[C@@H]1CN[C@@H](C#Cc2cc3ncnc(Nc4ccc(OCc5cccc(F)c5)c(Cl)c4)c3s2)C1 was > 22 µM

Note to self: TGI recorded for C/C(O)=C/c1nc2ccc([N+](=O)[O-])cc2nc1/C=C(/C)O was > 100 µM

Note to self: TGI recorded for O=C1C2Cc3ccccc3CN2C(=O)N1CCN1CCCC1 (stereo not drawn) was > 100 µM

Note to self: TGI recorded for Nc1ccc(S(=O)(=O)NCc2nccs2)cc1 was 44 µM

Note to self: TGI recorded for NNC(=S)N1CCN(C(=S)NN)CC1 was > 100 µM
